# System: NOMO1
# testName: cell viability relative to DMSO control; higher = less cytotoxic
# conditionInfo: HPLM + 10% dialyzed FBS; 48 h; 0.00702 µM
cell viability values by entry
recordedMetric: cell viability (%)

| molecule | numericValue |
| --- | --- |
| CN(C)c1ccc(-c2nc3c(N4CCN(CC(=O)Nc5nccs5)CC4)c(Cl)cnc3[nH]2)cc1 | 121 |
| Cc1nc2ccc(CN(C)c3ccc(C(=O)N[C@@H](CCC(=O)O)C(=O)O)s3)cc2c(=O)[nH]1 | 101 |
| CC(O)(C[S+](=O)([O-])c1ccc(F)cc1)C(=O)Nc1ccc(C#N)c(C(F)(F)F)c1 (centres undefined) | 98.6 |
| c1ccc2c(CN3CCNCC3)cccc2c1 | 124 |
| OC1=CC(=C(C=C1)\C2=C(O)\C(=O)C3=C(O2)C=C(O)C=C3O)O | 138 |
| Cc1cc(/C=c2/sc3nc4ccccc4n3c2=O)c(C)n1-c1ccccc1 | 128 |
| CC(C)C[C@H](CC(=O)O)C(=O)N[C@@H](Cc1c[nH]c2ccccc12)C(=O)N[C@@H](C)c1ccccc1 | 124 |
| CC1(C)CCC(C)(C)c2cc(NC(=O)c3ccc(C(=O)O)cc3)ccc21 | 98.5 |
| Cc1nnc(C(=O)NC(C)(C)c2nc(C(=O)NCc3ccc(F)cc3)c(O)c(=O)n2C)o1 | 119 |
